Molecular target: mTOR (Homo sapiens, UniProt P42345)
Experiment: mTOR activity (no method described)
Assay type: biochemical
quantity-name: mTOR (µM)
API: value field is a number in µM; no unit string.

Q) Give the measured mTOR of CN(C)CCc1ccc(-c2ccc3ncc4ccc(=O)n(-c5ccc(C(=O)N6CCOCC6)cc5)c4c3c2)cc1 .
A) 12.44

Q) Proceed to CNCc1cc(-n2c(=O)ccc3cnc4ccc(-c5ccc(Cl)cc5)cc4c32)ccc1C(=O)N1CCOCC1
A) 15.37

Q) Proceed to O=C(NC1CCCCCC1)c1ccc(-n2c(=O)ccc3cnc4ccc(-c5ccc(Cl)cc5)cc4c32)cc1
A) 50

Q) Proceed to Cc1cc(C(=O)NCCCN(C)C)ccc1-n1c(=O)ccc2cnc3ccc(-c4ccc(Cl)cc4)cc3c21
A) 4.039

Q) Proceed to CCN(CCN(C)C)C(=O)c1ccc(-n2c(=O)ccc3cnc4ccc(-c5ccc(Cl)cc5)cc4c32)cc1
A) 3.792

Q) Proceed to CN1CC2CN(C(=O)c3ccc(-n4c(=O)ccc5cnc6ccc(-c7ccc(Cl)cc7)cc6c54)cc3)CC2C1 (stereo not shown)
A) 8.043

Q) Proceed to CCN(CC)Cc1ccc(-c2ccc3ncc4ccc(=O)n(-c5ccc(C(=O)NC6CC6)cc5)c4c3c2)cc1
A) 14.6

----------
Experiment: Microsomal stability (rat)
Type: in vitro ADME
Conditions: rat microsomes
Record form. Attribute: Microsomal Stability (rat) T1/2. Fill in for each entry.

Q) Give the measured Microsomal Stability (rat) T1/2 of Cc1cc(C(=O)NC2CC2)ccc1-n1c(=O)ccc2cnc3ccc(-c4ccc(Cl)cc4)nc3c21 .
A) 16.7 min

Q) Proceed to CS(=O)(=O)c1ccc(-n2c(=O)ccc3cnc4ccc(-c5ccc(Cl)cc5)cc4c32)cc1
A) >30.0 min

Q) Proceed to CN(C)Cc1ccc(-c2ccc3ncc4ccc(=O)n(-c5ccc6c(c5)NC(=O)C6)c4c3c2)cc1
A) >30 min

Q) Proceed to NCc1ccc(-c2ccc3ncc4ccc(=O)n(-c5ccc(C(=O)N6CCOCC6)cc5)c4c3c2)cc1
A) >30.0 min

----------
Record form. Attribute: mTOR. Fill in for each entry.
Molecular target: mTOR (Homo sapiens, UniProt P42345)
Assay: mTOR activity (no method described)
Format: biochemical
API: value field is a number in nM; no unit string.

Q) Give the measured mTOR of NC1(c2ccc(-c3ccc4ncc5ccc(=O)n(-c6ccc(C(=O)N7CCOCC7)cc6)c5c4c3)cc2)CCC1 .
A) 830.4

Q) Proceed to Nc1ccc(-c2ccc3ncc4ccc(=O)n(-c5ccc(C(=O)N6CCOCC6)cc5)c4c3c2)cn1
A) 88.72

Q) Proceed to COc1cc(C(=O)NCCCN(CCO)CCO)ccc1-n1c(=O)ccc2cnc3ccc(-c4ccc(Cl)cc4)cc3c21
A) 16000

Q) Proceed to Cc1ccc(C#N)cc1-n1c(=O)n(C)c2cnc3ccc(-c4ccoc4)cc3c21
A) 5000

Q) Proceed to O=C(c1ccc(-n2c(=O)ccc3cnc4ccc(-c5ccc(Cl)cc5)cc4c32)cc1C(F)(F)F)N1CCOCC1
A) 372.4

Q) Proceed to O=C(NC1CC1c1ccccc1)c1ccc(-n2c(=O)ccc3cnc4ccc(-c5ccc(Cl)cc5)cc4c32)cc1 (stereo not shown)
A) 7899

Q) Proceed to CC(C)(N)c1cccc(-c2ccc3ncc4ccc(=O)n(-c5ccc(C(=O)N6CCOCC6)cc5)c4c3c2)c1
A) 2384
